Numbers sourced from patent US10188108B2.

Listing of entries alongside the reported efficacy.
Tested on: Myzus persicae
Assay: Myzus persicae - spray test (Chinese cabbage leaf discs)
Type: in vivo
Conditions: 500 g/ha, after 5-6 days
measured metric: efficacy (%)

compound: CCS(=O)(=O)c1c(-c2nc3cc(C(F)(F)F)ncc3n2C)nc2ccc(C)cn12
reading: 90
//
compound: CCS(=O)(=O)c1c(-c2nc3cc(C(F)(F)F)ncc3n2C)nc2ccc(C(F)(F)F)cn12
reading: 90
//
compound: CCS(=O)(=O)c1c(-c2nc3cc(C(F)(F)F)ccc3n2C)nc2ccc(C)cn12
reading: 90
//
compound: CCS(=O)(=O)c1c(-c2nc3cc(C(F)(F)F)ncc3n2C)nc2cccc(C(F)(F)F)n12
reading: 100
//
compound: CCS(=O)(=O)c1c(-c2nc3cc(C(F)(F)F)cnc3n2C)nc2ccccn12
reading: 90
//
compound: CC[S+]([O-])c1c(-c2nc3cc(C(F)(F)F)ccc3n2C)nc2ccccn12 (centres unmarked)
reading: 90
//
compound: CCS(=O)(=O)c1c(-c2nc3cc(C(F)(F)F)ncc3n2C)nc2ccccn12
reading: 90
//
compound: CCS(=O)(=O)c1c(-c2nc3cc(C(F)(F)F)ncc3n2C)nc2cc(C(F)(F)F)ccn12
reading: 100
//
compound: CCS(=O)(=O)c1c(-c2nc3cc(C(F)(F)F)ncc3n2C)nc2c(Cl)cccn12
reading: 90
//
compound: CCS(=O)(=O)c1c(-c2nc3cc(C(F)(F)F)ncc3n2C)nc2ccc(OC)cn12
reading: 90
//
compound: CCS(=O)(=O)c1c(-c2nc3cc(C(F)(F)F)ncc3n2C)nc2ccc(Cl)cn12
reading: 90
//
compound: CC[S+]([O-])c1c(-c2nc3cc(C(F)(F)F)ncc3n2C)nc2cccc(C(F)(F)F)n12 (centres unmarked)
reading: 90
//
compound: CCS(=O)(=O)c1c(-c2nc3cc(C(F)(F)F)ccc3n2C)nc2cccc(C)n12
reading: 90
//
compound: CC[S+]([O-])c1c(-c2nc3cc(C(F)(F)F)ncc3n2C)nc2ccc(Cl)cn12 (centres unmarked)
reading: 90
//
compound: CCS(=O)(=O)c1c(-c2nc3cc4c(cc3n2C)OC(F)(F)O4)nc2ccccn12
reading: 90
//
compound: CCSc1c(-c2nc3cc(C(F)(F)F)ncc3n2C)nc2ccccn12
reading: 90
//
compound: CCS(=O)(=O)c1c(-c2nc3cc(C(F)(F)F)cnc3n2C)nc2ccc(C)cn12
reading: 100
